- MEASURED TARGET: Muscarinic acetylcholine receptor M2 (Rattus norvegicus, UniProt P10980)
- Sequence (P10980 whole entry): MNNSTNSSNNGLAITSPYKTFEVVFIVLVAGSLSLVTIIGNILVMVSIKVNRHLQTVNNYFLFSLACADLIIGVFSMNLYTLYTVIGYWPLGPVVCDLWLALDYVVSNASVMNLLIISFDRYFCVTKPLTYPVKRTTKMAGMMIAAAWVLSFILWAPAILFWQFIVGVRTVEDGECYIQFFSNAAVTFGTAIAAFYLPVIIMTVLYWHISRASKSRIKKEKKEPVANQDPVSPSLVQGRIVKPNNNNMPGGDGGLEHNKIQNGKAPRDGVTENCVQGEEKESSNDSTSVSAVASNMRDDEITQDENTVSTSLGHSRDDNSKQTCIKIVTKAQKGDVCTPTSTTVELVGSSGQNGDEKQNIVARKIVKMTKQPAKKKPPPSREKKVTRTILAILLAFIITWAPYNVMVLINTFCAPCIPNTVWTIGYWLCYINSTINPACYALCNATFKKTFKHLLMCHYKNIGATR
I'd appreciate it if you could supply Ki values for the items below.
One number for each entry, in µM.

| MOLECULE | QUANTITY | UNIT OF MEASUREMENT | ENDPOINT VALUE |
| --- | --- | --- | --- |
| C[C@@H]1CCC[C@@H](/C=C/[C@H]2[C@@H]3CCCC[C@H]3C[C@H]3C(=O)O[C@H](C)[C@@H]23)N1C (single isomer, unassigned; ent-1) | Ki | µM | 0.794 |

Take each entry in turn and give its Ki.
1. C[C@@H]1OC(=O)[C@H]2C[C@H]3CCCC[C@@H]3[C@@H](/C=C/[C@H]3CCC[C@H](C)N3C)[C@@H]12
2. C[C@@H]1OC(=O)[C@H]2C[C@H]3CCCC[C@@H]3[C@@H](/C=C/[C@@H]3CCC[C@@H](C)N3C)[C@@H]12
3. C[C@H]1OC(=O)[C@@H]2C[C@@H]3CCCC[C@H]3[C@H](/C=C/[C@H]3CCC[C@H](C)N3C)[C@H]12

**Result**
1: 0.01; 2: 0.2; 3: 0.2
